target: Carbonic anhydrase 1 (Homo sapiens); test: Inhibition of recombinant human carbonic anhydrase 1 assessed as inhibition constant preincubated for 15 mins by measured for 10 to 100 secs by phenol red dye based stopped flow CO2 hydration assay
Sequence (P00915 whole entry): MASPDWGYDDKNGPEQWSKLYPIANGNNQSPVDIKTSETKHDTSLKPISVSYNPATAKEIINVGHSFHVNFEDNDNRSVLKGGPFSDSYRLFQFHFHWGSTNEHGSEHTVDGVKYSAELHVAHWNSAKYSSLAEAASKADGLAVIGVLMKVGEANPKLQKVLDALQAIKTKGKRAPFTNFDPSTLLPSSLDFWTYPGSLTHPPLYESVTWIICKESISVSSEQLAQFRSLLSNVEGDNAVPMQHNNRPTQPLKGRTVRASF
measurementName: pKi
Give bare numbers, as −log10 of the molar value.

Endpoint output: pKi of `NS(=O)(=O)c1ccc2c(c1)S(=O)(=O)NC2=O` . Value?
5.47

---

biological target: Carbonic anhydrase 9 (Homo sapiens, UniProt Q16790)
measurementName: Ki (nM)
Numbers only, in nM.

Ki lookup needed for `NS(=O)(=O)c1ccc(N2CN(Cc3cccc(Cl)c3)CCS2(=O)=O)cc1` , thanks.
317

// data source = ChEMBL document CHEMBL5143524
